Target: TDO2 (Homo sapiens, UniProt P48775)
Construct: decreased levels of NFK in SW48 cells (high TDO expressing cells)
Sequence (P48775 whole entry): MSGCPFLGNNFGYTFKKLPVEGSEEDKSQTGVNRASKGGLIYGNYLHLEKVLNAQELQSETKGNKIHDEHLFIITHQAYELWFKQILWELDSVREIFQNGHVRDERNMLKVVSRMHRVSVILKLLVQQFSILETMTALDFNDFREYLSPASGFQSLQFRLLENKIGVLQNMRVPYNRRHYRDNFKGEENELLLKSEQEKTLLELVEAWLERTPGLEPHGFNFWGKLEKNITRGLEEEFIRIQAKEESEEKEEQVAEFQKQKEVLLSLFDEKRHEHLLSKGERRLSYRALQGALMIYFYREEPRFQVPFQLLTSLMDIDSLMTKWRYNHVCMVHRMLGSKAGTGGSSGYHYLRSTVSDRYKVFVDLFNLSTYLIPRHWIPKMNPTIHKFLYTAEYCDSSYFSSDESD
Assay: TDO2 cell assay (NFK GreenScreen, SW48 cells)
Type: cell-based
Details: SW48 cells (high TDO expressing), 200 uM tryptophan, 24 hours; Table 3; read-out: TDO2 Cell Fluor EC50
observable: EC50

Please review the entries below; each comes with its answer.
{"molecule": "CC1(C)COC[C@@H]([C@H]2c3ccccc3-c3cncn32)[C@H]1O [Example 66a]", "EC50": "> 25 µM"}
{"molecule": "OC(C1CC1)C1c2ccccc2-c2cncn21 (single isomer, unassigned) [Example 52c]", "EC50": "> 25 µM"}

Annotate the molecule O[C@H]1c2cncn2CC[C@@H]1[C@@H]1c2ccccc2-c2cncn21 [Example 07g] with its measured EC50.
> 25 µM

====

Biological target: TDO2 (Homo sapiens)
Construct: decreased levels of NFK in SW48 cells (high TDO expressing cells)
Experiment: TDO2 cell assay (NFK GreenScreen, SW48 cells)
Format: cell-based
Conditions: SW48 cells (high TDO expressing), 200 uM tryptophan, 24 hours; Table 3; read-out: TDO2 Cell Fluor EC50
observable: EC50

Here is how some compounds turned out for EC50.
{"compound": "O[C@@H]1COCC[C@H]1[C@@H]1c2c(F)cccc2-c2cncn21 (single isomer, unassigned) [Example 120d]", "experimentalTarget": "TDO2 (Homo sapiens)", "resultValue": "> 25 µM"}
{"compound": "CS(=O)(=O)N1CCC(O)(C2c3ccccc3-c3cncn32)C1 (single isomer, unassigned) [Example 116c]", "experimentalTarget": "TDO2 (Homo sapiens)", "resultValue": "> 25 µM"}
{"compound": "OC1CCOCC1C1c2c(Cl)cccc2-c2cncn21 (single isomer, unassigned) [Example 69d]", "experimentalTarget": "TDO2 (Homo sapiens)", "resultValue": "> 25 µM"}
{"compound": "O[C@H]1c2ccnn2CC[C@@H]1[C@@H]1c2ccccc2-c2cncn21 [Example 56d]", "experimentalTarget": "TDO2 (Homo sapiens)", "resultValue": "> 25 µM"}
{"compound": "OC1C(C2c3ccc(F)cc3-c3cncn32)CC12CCOCC2 (single isomer, unassigned) [Example 109h]", "experimentalTarget": "TDO2 (Homo sapiens)", "resultValue": "> 25 µM"}
{"compound": "OC1c2ccnn2CCCC1C1c2ccccc2-c2cncn21 (single isomer, unassigned) [Example 133h]", "experimentalTarget": "TDO2 (Homo sapiens)", "resultValue": "> 25 µM"}
{"compound": "OC1c2[nH]ncc2CCC1C1c2ccccc2-c2cncn21 (single isomer, unassigned) [Example 157e]", "experimentalTarget": "TDO2 (Homo sapiens)", "resultValue": "0.096 µM"}
{"compound": "CC1(C)CC(O)C1C1c2ccccc2-c2cncn21 (single isomer, unassigned) [Example 22d]", "experimentalTarget": "TDO2 (Homo sapiens)", "resultValue": "6.9 µM"}

For each entry beneath this line, provide reported EC50.
1. NS(=O)(=O)N1CCC(O)C(C2c3ccccc3-c3cncn32)CC1 (single isomer, unassigned) [Example 101b]
2. N#CC1CCC(O)(C2c3ccccc3-c3cncn32)CC1 (single isomer, unassigned) [Example 145a]
3. OC1COCCC1C1c2cccc(F)c2-c2cncn21 (single isomer, unassigned) [Example 99c]
4. OC1c2c(F)cnn2CCC1C1c2ccccc2-c2cncn21 (single isomer, unassigned) [Example 151c]
5. OC1c2cnncc2CCC1C1c2ccccc2-c2cncn21 (single isomer, unassigned) [Example 112c]
6. CC(C)(C)OC(=O)N1CC2(CC(C3c4ccccc4-c4cncn43)C2O)C1 (single isomer, unassigned) [Example 41g]

1. 5.1 µM
2. 4.2 µM
3. > 25 µM
4. > 25 µM
5. > 25 µM
6. > 25 µM

Give me EC50 for each of these compounds, listed below.
1. OC(c1ccncc1)C1c2ccccc2-c2cncn21 (single isomer, unassigned) [Example 152b]
2. CC1(C)OC(C)(C)C(C2c3ccccc3-c3cncn32)C1O (single isomer, unassigned) [Example 84e]

> 25 µM
> 25 µM
